The reported numbers originate from patent US20200071424A1.

This section presents binders with their documented koff values.
assayTarget: T1, human [1-305]-mouse chimeric EL (human; mouse, UniProt Q9WVG5 306-500)
T1 construct: Heparin extract, captured or detected by an anti-C2-tag antibody; also called human-mouse chimeric EL
T1 sequence: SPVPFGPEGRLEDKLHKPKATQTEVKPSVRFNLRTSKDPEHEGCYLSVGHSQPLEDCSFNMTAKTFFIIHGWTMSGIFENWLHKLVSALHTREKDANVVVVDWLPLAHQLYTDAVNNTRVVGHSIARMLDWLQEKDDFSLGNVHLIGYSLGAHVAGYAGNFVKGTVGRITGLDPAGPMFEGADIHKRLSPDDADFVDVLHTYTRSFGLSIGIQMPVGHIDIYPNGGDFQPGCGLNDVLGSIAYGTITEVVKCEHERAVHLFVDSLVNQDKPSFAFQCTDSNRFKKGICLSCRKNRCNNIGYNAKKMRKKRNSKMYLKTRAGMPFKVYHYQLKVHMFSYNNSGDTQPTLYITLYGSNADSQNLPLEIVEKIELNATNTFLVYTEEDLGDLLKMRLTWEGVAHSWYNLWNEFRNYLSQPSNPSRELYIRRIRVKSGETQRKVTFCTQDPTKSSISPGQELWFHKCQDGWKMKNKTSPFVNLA
experimentalProtocol: Biacore; EL captured by anti-C2-tag Ab; bivalent fit
Description: The binding affinities of anti-EL antibodies were measured using Biacore. […] Then, anti-EL humanized antibodies were added and the binding affinities were calculated by bivalent fitting of BIAevaluation software.

>  <binder>
h55A1-F6 (antibody, V domains shown, humanized) VH: QVQLVQSGAEVKKPGASVKVSCKASGYTFTNYGMNWVRQAPGQGLEWMGWINTYSGVPTYAGDFKGRFTFTLDTSTSTAYMELSSLRSEDTAVYYCARRGYYGRRYFDVWGKGTTVTVSS VL: EIVMTQSPATLSVSPGERATLSCKASQSVDYDVDSYMHWYQQKPGQAPRLLIYAASNLASGIPARFSGSGSGTEFTLTISSLQSEDFAVYYCQQTIEDPPTFGGGTKVEIK

>  <koff / s⁻¹>
4.8e-05

$$$$
>  <binder>
h55A1-F4 (antibody, V domains shown, humanized) VH: QVQLVQSGAEVKKPGASVKVSCKASGYTFTNYGMNWVRQAPGQGLEWMGWINTYSGVPTYAGDFKGRVTMTTDTSTSTAYMELRSLRSDDTAVYYCARRGYYGRRYFDVWGKGTTVTVSS VL: EIVLTQSPGTLSLSPGERATLSCKASQSVDYDVDSYMHWYQQKPGQAPRLLIYAASNLASGIPDRFSGSGSGTDFTLTISRLEPEDFAVYYCQQTIEDPPTFGGGTKVEIK

>  <koff / s⁻¹>
3e-05

$$$$
>  <binder>
h16B3-S5 (antibody, V domains shown, humanized) VH: EVQLVESGGGLVQPGGSLRLSCAASGFTFSGYTMSWVRQAPGKGLEWVSEISFARDRAFYPDTVKGRFTISRDNSKNTLYLQMNSLRAEDTAVYYCARLGGKNRDFWYFDLWGQGTTVTVSS VL: DIVMTQSPDSLAVSLGERATINCRASESVEYYGTSLMQWYQQKPGQPPKLLIYAASNVESGVPDRFSGSGSGTDFTLTISSLQAEDVAVYYCQQSWKVPFTFGQGTKLEIK

>  <koff / s⁻¹>
5.7e-05

$$$$
>  <binder>
h55A1-S2 (antibody, V domains shown, humanized) VH: QVQLVQSGSELKKPGASVKVSCKASGYTFTNYGLNWVRQAPGQGLEWMGWINTYSGVPTYAGDFKGRFVFSLDTSVSTAYLQISSLKAEDTAVYYCARRGYYGRRFFDVWGKGTTVTVSS VL: DIVLTQSPASLAVSPGQRATITCKASQSVDYDVDSYMHWYQQKPGQPPKLLIYAASNLASGVPARFSGSGSGTDFTLTINPVEANDTANYYCQQTIEDPPTFGGGTKVEIK

>  <koff / s⁻¹>
0.00037

$$$$
>  <binder>
h16B3-F2 (antibody, V domains shown, humanized) VH: EVQLVESGGGLVQPGGSLRLSCAASGFTFSGYTMSWVRQAPGKGLEWVSEISFARDRAFYPDTVKGRFTISRDNSKNTLYLQMNSLRAEDTAVYYCARLGGRNHDYWYFDVWGQGTTVTVSS VL: EIVMTQSPATLSVSPGERATLSCRASESVEYYGTSLMQWYQQKPGQAPRLLIYAASNVESGIPARFSGSGSGTEFTLTISSLQSEDFAVYYCQQSWKVPFTFGQGTKLEIK

>  <koff / s⁻¹>
0.00011

$$$$
>  <binder>
h16B3-F1 (antibody, V domains shown, humanized) VH: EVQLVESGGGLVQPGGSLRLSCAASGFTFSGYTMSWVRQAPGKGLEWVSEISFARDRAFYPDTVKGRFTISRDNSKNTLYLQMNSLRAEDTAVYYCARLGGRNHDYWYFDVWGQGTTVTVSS VL: DIQMTQSPSSLSASVGDRVTITCRASESVEYYGTSLMQWYQQKPGKAPKLLIYAASNVESGVPSRFSGSGSGTDFTLTISSLQPEDFATYYCQQSWKVPFTFGQGTKLEIK

>  <koff / s⁻¹>
0.0002

$$$$
>  <binder>
h16B3-S7 (antibody, V domains shown, humanized) VH: EVQLVESGGGLVQPGGSLRLSCAASGFTFSAYTMSWVRQAPGKGLEWVSDISFARDRAFYPDTVKGRFTISRDNSKNTLYLQMNSLRAEDTAVYYCARLGGKNRDFWYFDLWGQGTTVTVSS VL: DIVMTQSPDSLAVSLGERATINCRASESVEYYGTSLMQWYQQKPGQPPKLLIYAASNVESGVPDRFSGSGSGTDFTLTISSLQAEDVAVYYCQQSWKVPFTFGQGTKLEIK

>  <koff / s⁻¹>
5.9e-05

$$$$
>  <binder>
h55A1-S4 (antibody, V domains shown, humanized) VH: QVQLVQSGSELKKPGASVKVSCKASGYTFTNYAMNWVRQAPGQGLEWMGWINTYSGVGTYAGDFKGRFVFSLDTSVSTAYLQISSLKAEDTAVYYCARRGFYGRRFFDVWGKGTTVTVSS VL: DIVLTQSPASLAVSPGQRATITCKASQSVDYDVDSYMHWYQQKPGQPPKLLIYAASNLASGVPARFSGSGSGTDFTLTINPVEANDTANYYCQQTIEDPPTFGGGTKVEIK

>  <koff / s⁻¹>
0.00024

$$$$
>  <binder>
h16B3-S6 (antibody, V domains shown, humanized) VH: EVQLVESGGGLVQPGGSLRLSCAASGFTFSGYTMSWVRQAPGKGLEWVSEISFARDRAFYPDTVKGRFTISRDNSKNTLYLQMNSLRAEDTAVYYCARLGGKNRDFWYFDLWGQGTTVTVSS VL: DIVMTQSPDSLAVSLGERATINCRASESVEYYGTSLMQWYQQKPGQPPKLLIYAASNVESGVPDRFSGSGSGTDFTLTISSLQAEDVAVYYCQQSWRVPFTFGQGTKLEIK

>  <koff / s⁻¹>
5.8e-05

$$$$
>  <binder>
h55A1-F1 (antibody, V domains shown, humanized) VH: QVQLVQSGSELKKPGASVKVSCKASGYTFTNYGMNWVRQAPGQGLEWMGWINTYSGVPTYAGDFKGRFVFSLDTSVSTAYLQISSLKAEDTAVYYCARRGYYGRRYFDVWGKGTTVTVSS VL: DIQLTQSPSSLSASVGDRVTITCKASQSVDYDVDSYMHWYQQKPGKAPKLLIYAASNLASGVPSRFSGSGSGTDFTFTISSLQPEDIATYYCQQTIEDPPTFGGGTKVEIK

>  <koff / s⁻¹>
1.7e-05

$$$$
